All figures here come from PubChem BioAssay (NCI).

Let's look at some compounds and their measured log10 of TGI.
tested on: NCI-H522 lung; assay: NCI tumour cell line growth inhibition, 48 h
VALUE_KIND: log10 of TGI (log10 of the value in µM)

1. N#Cc1c(NCc2ccccc2)nc(NCc2ccccc2)c(C#N)c1-c1cccc(O)c1 ... 1.52
2. O=C(Nc1ccccc1C(=O)O)C(=O)C(C(=O)c1ccccc1-c1ccccc1)C1OC(=O)c2ccccc21 (centres undefined) ... 1.49
3. COc1ccc(NC(=S)NNC(=O)c2cc(-c3ccccc3)nc3ccccc23)cc1 ... 1.71
4. O=C(Nc1ccc(-c2ccnc(Nc3ccc(N4CCOCC4)cc3)n2)cc1)C1CCCN1 (centres undefined) ... 1.32
5. Cc1cc(O)c2c(c1)C(=O)C(c1c(C)cc3c(c1O)C(=O)C1OC1C3=O)=CC2=O (centres undefined) ... 0.15
6. COC(=O)[C@@H]1O[C@]12[C@@H](CO[Si](C)(C)C(C)(C)C)O[C@@H](n1cc(C)c(=O)[nH]c1=O)[C@@H]2O[Si](C)(C)C(C)(C)C ... 1.48
7. C=C(C(=O)OC)[C@H]1CC/C(C)=C/CC/C(C)=C/CC[C@@]2(C)O[C@@H]2C1 ... 1.59
8. C=C(C)[C@@H]1CC[C@]2(C)[C@H](CC=C3[C@@H]4[C@H](C)[C@@H](C)CC[C@]4(CO)CC[C@]32C)[C@@]1(C)CCCN ... 0.34

----------
system: UO-31 renal; assay: NCI tumour cell line growth inhibition, 48 h
VALUE_KIND: TGI

1) COc1cc(-c2[o+]c3cc(O)cc(OC4OC(CO)C(O)C(O)C4O)c3cc2OC2OC(CO)C(O)C(O)C2O)cc(OC)c1O (centres undefined) ... > 100 µM
2) CC(=O)Nc1ccc(/C=C(\NC(=O)c2ccccc2)C(=O)NNS(=O)(=O)c2ccc(C)cc2)cc1 ... > 100 µM
3) CN(CCN(C)C(=O)CCn1ccc(=O)[nH]c1=O)C(=O)CCn1ccc(=O)[nH]c1=O ... > 100 µM
4) COC(=O)c1c(C#C[Si](C)(C)C)c(C#C[Si](C)(C)C)c(C#C[Si](C)(C)C)c(C#C[Si](C)(C)C)c1C(=O)OC ... > 100 µM
5) CC1(C)CC(=O)C(=CN2C(=O)CNC2=S)C(=O)C1 ... > 100 µM
6) C/C(=C\CNc1nc(Cl)nc2nc[nH]c12)CO ... > 100 µM
7) CCC(=O)OC1=CN2C(=NC(c3ccc(N)cc3)=CC2c2cc(OC)c(OC)c(OC)c2)S1 (centres undefined) ... 13.6 µM
8) C=C(C)[C@@H]1CC[C@]2(C)[C@H](CC=C3[C@@H]4[C@H](C)[C@@H](C)CC[C@]4(CO)CC[C@]32C)[C@@]1(C)CCCN ... 2.24 µM
9) CN1N=Nc2c(C(F)(F)F)nn(-c3ccccc3)c2N(C)C1=O ... > 100 µM

----------
tested on: NCI-H226 lung; assay: NCI tumour cell line growth inhibition, 48 h
VALUE_KIND: TGI

1. O=C(NCc1cccnc1)C(=O)NCc1cccnc1 ... > 100 µM
2. O=C(O)Cc1cc(=O)[nH]c2c1C(=O)CCC2 ... > 100 µM
3. Oc1ccc2ccccc2c1OCc1nnc(CCCCCCCCc2nnc(COc3c(O)ccc4ccccc34)o2)o1 ... > 100 µM
4. COC(=O)/C(=N/O)C(C(=O)OC)C(=O)C(=O)Nc1c(Cl)cc(C)cc1S(=O)(=O)O (stereo not given) ... > 100 µM
5. C=C1C[C@@H]2[C@H](CC[C@]3(C)C(=O)CC[C@@H]23)[C@@]2(C)C=CC(=O)C=C12 ... > 60 µM

----------
system: U251 CNS
Classes used: y (active), n (inactive)

1. Cc1cc(Cl)ccc1NC(=O)NC(C)(C)COC(=O)Nc1cccc(Cl)c1 ... n
2. O=C(O)c1ccc2cccnc2c1O ... n
3. Cc1nc2sc(C(=O)Nc3cccc(Cl)c3C)c(N)c2cc1C(C)O (stereo not given) ... y
4. CC[C@H](C)[C@H](NC(=O)c1nccn1C)C(=O)N(C)[C@H](C[C@@H](OC(C)=O)c1nc(C(=O)N[C@@H](Cc2ccccc2)C[C@H](C)C(=O)OC)cs1)C(C)C ... n
5. c1cc2ccc1CNCCN1CCNCc3ccc(cc3)Oc3ccc(cc3)CNCCN(CCNCc3ccc(cc3)O2)CCNCc2ccc(cc2)Oc2ccc(cc2)CNCC1 ... n

----------
test system: SK-MEL-5 melanoma; test: NCI tumour cell line growth inhibition, 48 h
Let's look at some compounds and their measured GI50.
VALUE_KIND: GI50

1) COc1cc(/C=C/c2cc(/C=C/c3ccc(O)c(OC)c3)[nH]c(=O)n2)ccc1O ... 3.7 µM
2) C=C(C)[C@@H]1CC[C@]2(C)[C@H](CC=C3[C@@H]4[C@H](C)[C@@H](C)CC[C@]4(CO)CC[C@]32C)[C@@]1(C)CCCN ... 0.91 µM
3) CCC(=O)OC1=CN2C(=NC(c3ccc(N)cc3)=CC2c2cc(OC)c(OC)c(OC)c2)S1 (stereo not given) ... 2.89 µM
4) S=C(Nc1ccccc1)N1CCn2c1nsc2=Nc1ccccc1 ... 37.8 µM
5) Cc1ccc(S(=O)(=O)c2ccsc2N)cc1 ... 66 µM

----------
test system: SK-MEL-2 melanoma; test: NCI tumour cell line growth inhibition, 48 h
Let's look at some compounds and their measured TGI.
VALUE_KIND: TGI (µM)

1) O=S1(=O)CC(Br)C(Br)C1 (stereo unspecified) ... 28.6
2) O=C1C(=Cc2ccccc2[N+](=O)[O-])N=C(c2ccccc2)N1n1c(-c2ccccc2)nc2ccccc2c1=O ... 88.2
3) COc1cc(N=Nc2cccc(S(N)(=O)=O)c2)c2ccccc2c1N ... 5.13
4) COc1ccc(C2NC(=O)Nc3c2c(=O)oc2c3ccc3ccccc32)cc1 (stereo unspecified) ... 82.8

----------
system: NCI-H522 lung; experiment: NCI tumour cell line growth inhibition, 48 h
Please mark fulfilled if the recorded TGI is equal to or greater than 50 µM, and not fulfilled if it falls below.

1) Cc1nnc2sc(-c3ccc([N+](=O)[O-])o3)nn12 ... not fulfilled
2) CC(=O)Nc1ccc(/C=C(\NC(=O)c2ccccc2)C(=O)NNS(=O)(=O)c2ccc(C)cc2)cc1 ... fulfilled
3) Cc1ccc2cnc(N)c(C#Cc3cncc(C(=O)Nc4ccc(CN5CCN(C)CC5)c(C(F)(F)F)c4)c3)c2c1 ... not fulfilled
4) Cc1ccc(/C=C2\CN(Cc3cn(CCNc4ccnc5cc(Cl)ccc45)nn3)C/C(=C\c3ccc(C)cc3)C2=O)cc1 ... not fulfilled
5) CCC1OC(/C(C)=C/C(C)/C=C/C2C(C)C2/C=C/C2OC(CC(=O)O)CC(O)C2O)CC=C1C (stereo not given) ... fulfilled
6) CNC(C)Cc1ccc(O)cc1 (stereo not given) ... fulfilled
7) O[C@H](CN1CC1)[C@@H](O)CN1CC1 ... fulfilled
8) C[C@@H]1OCC(O)C([C@H]2OC(c3ccccc3)=N[C@H]2CO)O1 (stereo not given in full) ... fulfilled

----------
system: NCI-H522 lung; test: NCI tumour cell line growth inhibition, 48 h
Let's look at some compounds and their measured TGI.
VALUE_KIND: TGI

1. CCCCCCc1cn([C@H]2C[C@H](O)[C@@H](CO)O2)c(=O)[nH]c1=O ... > 100 µM
2. O=C(Nc1nc(C23CC4CC(CC(C4)C2)C3)cs1)c1cc2cc([N+](=O)[O-])ccc2oc1=O ... > 100 µM
3. Oc1ccc2ccccc2c1OCc1nnc(CCCCCCCCc2nnc(COc3c(O)ccc4ccccc34)o2)o1 ... > 100 µM
4. CC1OC=CC(=O)C1O (centres undefined) ... > 100 µM
5. Nc1ccc(-c2nc3ccccc3s2)cc1 ... 40.1 µM
6. COc1cccc2ccc3c(c12)C(=O)OC31CCc2c(C)cccc21 (centres undefined) ... > 31.6 µM
7. NC1CCCCC1N.O=S(=O)([O-])CCCN1CCN(CCO)CC1.O=S(=O)([O-])CCCN1CCN(CCO)CC1.[Pt+4] ... 17.9 µM
8. C[C@H]1CC2=CC(=O)CC[C@]2(C)[C@H]2CC[C@@]3(C)[C@@H](CC[C@]3(C)O)[C@H]12 ... 75.5 µM
9. CC1(C)Oc2ccc3c(=O)c4ccccc4oc3c2C1C(=O)O (centres undefined) ... > 100 µM
10. CCC1(CC)C(=O)[N-]C(=O)[N-]C1=O.[Au+].[Au+].c1ccc([PH+](c2ccccc2)c2ccccc2)cc1.c1ccc([PH+](c2ccccc2)c2ccccc2)cc1 ... 0.244 µM
11. Cn1c(=O)c2[nH]c(CCC(=O)O)nc2n(C)c1=O ... > 100 µM
12. S=c1[nH]nc(SCc2ccccc2Cl)c2[nH]cnc12 ... > 100 µM
13. N#Cc1c(-c2ccc(Cl)cc2)cc(-c2nc3ccccc3[nH]2)nc1N ... 35.1 µM
14. O=c1/c(=C/c2ccc(-c3ccc(Cl)cc3Cl)o2)sc2n1[C@@H](c1ccc3c(c1)OCO3)C=C(c1cc(F)c(Cl)cc1Cl)N=2 ... > 100 µM
15. CC[C@H](C)[C@H](NC(=O)c1nccn1C)C(=O)N(C)[C@H](C[C@@H](OC(C)=O)c1nc(C(=O)N[C@@H](Cc2ccccc2)C[C@H](C)C(=O)OC)cs1)C(C)C ... 1.56 µM
16. CCOC(=O)CCC(C(=O)OCC)n1nnc2cc(Nc3c(C)[n+]([O-])c4ccc(Cl)cc4[n+]3[O-])ccc21 (centres undefined) ... > 100 µM
17. O=C1C2=C(c3ccccc31)C(c1ccc(F)cc1)N1C(=O)CCSC1=N2 (centres undefined) ... > 100 µM
18. N#Cc1ccc2c(c1)C(=O)c1c-2n(CCCN=[N+]=[N-])c(=O)c2cc([N+](=O)[O-])ccc12 ... > 50 µM
19. O=c1cccccc1NCCNc1cccccc1=O ... > 100 µM
